The measurements presented in this section are drawn from paper PMC4713166.

# targetOrTestSystem: T1, recombinant human Fc-tagged PSA (Homo sapiens, UniProt P07288)
# T1 construct: prostate-specific antigen (PSA), human; also called prostate-specific antigen; recombinant Fc-tagged PSA
# T1 sequence (P07288 18-261): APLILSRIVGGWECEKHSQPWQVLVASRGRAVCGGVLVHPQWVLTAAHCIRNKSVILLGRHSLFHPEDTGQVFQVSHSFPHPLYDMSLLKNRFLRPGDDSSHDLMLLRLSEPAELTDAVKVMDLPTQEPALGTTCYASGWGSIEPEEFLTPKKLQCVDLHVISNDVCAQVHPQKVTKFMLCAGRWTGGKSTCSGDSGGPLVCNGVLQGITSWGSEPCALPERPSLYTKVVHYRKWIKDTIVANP
# experimentDescription: ELISA; phage enzyme immunoassay: recombinant human Fc-tagged PSA coated on the microtiter plate (5 ug/ml in PBS, overnight at 4 C), blocked with 3% BSA in PBS; scFv-displaying phages in culture supernatant; HRP-conjugated anti-M13 antibody, ABTS, optical density at 405 nm
# measurementContext: one partner purified
measuredProperty: binding result

INSERT INTO assay_data (binder, reportedresult) VALUES
  ('artificial cysteine-mutant scFv L7, scFv-pIII fusion protein displayed on phage (scFv, V domains shown, VH as in m2; Order VL-linker-VH worked out as for m2) VH: AVTLDESGGGLQTPGGALSLVCKASGFTFSSYDMGWVRQAPGKGLEWVAGIDDDGSYPNYGPAVKGRATISRDNGQSTVRLQLNNLRAEDTGTYFCAKGIESDSDGYMTAEEIDAWGHGTEVIVSS VL: ALTQCSSVSANLGGTVKITCSGGYSYYGWYQQKSPGSAPVTVIYESTKRPSNIPSRFSGSTSGSTGTLTITGVQADDAAVYYCGSWDSSSVGIFGAGTTLTVL', 'binds'),
  ('artificial cysteine-mutant scFv L5, scFv-pIII fusion protein displayed on phage (scFv, V domains shown, VH as in m2; Order VL-linker-VH worked out as for m2) VH: AVTLDESGGGLQTPGGALSLVCKASGFTFSSYDMGWVRQAPGKGLEWVAGIDDDGSYPNYGPAVKGRATISRDNGQSTVRLQLNNLRAEDTGTYFCAKGIESDSDGYMTAEEIDAWGHGTEVIVSS VL: ALCQPSSVSANLGGTVKITCSGGYSYYGWYQQKSPGSAPVTVIYESTKRPSNIPSRFSGSTSGSTGTLTITGVQADDAAVYYCGSWDSSSVGIFGAGTTLTVL', 'binds');
